The reported numbers originate from PubChem BioAssay (NCI).

Parameter TGI: see the listing below.
- Test system: OVCAR-4 ovarian
- assay_details: NCI tumour cell line growth inhibition, 48 h

{"columns": ["compound", "assayed_system", "TGI"],
 "data": [
  ["CC(=O)Nc1ccc(/C=C(\\NC(=O)c2ccccc2)c2nc3ccc4c(c3[nH]2)C(=O)c2ccccc2C4=O)cc1", "OVCAR-4 ovarian", "> 100 µM"],
  ["CC1=CC=NN2C(=O)[C@H](C)C2C1 (some centres not stated)", "OVCAR-4 ovarian", "> 100 µM"],
  ["CCOC(=O)c1nc2cc(N3CCOCC3)c(F)cc2[nH]c1=O", "OVCAR-4 ovarian", "> 100 µM"],
  ["N#CC1=C(N)Oc2cc3c(cc2C1c1cccs1)OCO3 (configuration not stated)", "OVCAR-4 ovarian", "> 100 µM"],
  ["c1ccc2c(c1)ccc1nc(-c3ccc4c(c3)OCO4)c3c(c12)CCCC3", "OVCAR-4 ovarian", "64.8 µM"],
  ["C=C(O)c1ccccc1C#Cc1ccccc1C(=O)OC", "OVCAR-4 ovarian", "> 10 µM"],
  ["c1ccc(N=C2c3ccccc3CN2c2ccccc2)cc1", "OVCAR-4 ovarian", "> 100 µM"]
]}
